The reported measurements were obtained from patent US10130615B2.

- target_under_test: μ-opioid receptor (Homo sapiens, UniProt P35372)
- Sequence (P35372 whole entry, species assumed): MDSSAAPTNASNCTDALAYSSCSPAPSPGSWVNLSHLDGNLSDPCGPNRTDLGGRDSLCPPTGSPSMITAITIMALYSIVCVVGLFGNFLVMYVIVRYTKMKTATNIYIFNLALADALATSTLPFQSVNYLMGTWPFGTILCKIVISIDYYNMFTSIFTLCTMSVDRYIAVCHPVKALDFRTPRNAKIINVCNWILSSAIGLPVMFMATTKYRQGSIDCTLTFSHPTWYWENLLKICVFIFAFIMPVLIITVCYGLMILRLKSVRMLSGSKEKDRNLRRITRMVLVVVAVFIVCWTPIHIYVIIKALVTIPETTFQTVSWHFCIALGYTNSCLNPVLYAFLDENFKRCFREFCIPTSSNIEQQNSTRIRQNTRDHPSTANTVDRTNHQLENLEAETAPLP
- protocol_notes: cell-based
- Set-up: purchased Perkin Elmer, Shelton, Conn
- measurement_setup: U2OS cells; read-out: β-Arr2 μ Emax
attribute_measured: Emax
I'd appreciate it if you included the unit after the number.

input_smiles	Emax
C[C@H]1[C@H]2Cc3ccc(O)cc3[C@]1(CCNC(=O)Cc1ccc(C(=O)O)cc1)CCN2CC1CC1	-1.25%

Name the recorded Emax for C[C@H]1[C@H]2Cc3ccc(O)cc3[C@]1(CCCC(N)=O)CCN2CC1CCC1 .
-1.5%

Name the recorded Emax for C[C@H]1[C@H]2Cc3ccc(O)cc3C1(CCNS(=O)(=O)N(C)C)CCN2C .
2.62%
